FYI, the data here is from PubChem BioAssay AID2588.

Biological target: Lysosomal acid glucosylceramidase (Homo sapiens)
Assay: qHTS Assay for Inhibitors and Activators of N370S glucocerebrosidase as a Potential Chaperone Treatment of Gaucher Disease: Activity in Non-Mutant Spleen Homogenate Using a Red Fluorescent Substrate
Details: red fluorogenic substrate GCase activity; series mostly up to 50.2 µM
Inconclusive results are not listed. The source made the active and inactive calls. Calls come from the whole dose curve; as a rule, active = well fitted inhibition curve with a large enough effect; inconclusive = small, poorly fitted or top-dose-only effect, or effect the other way; inactive = flat fitted curve, though single readings scatter.
// allowed return values: Y = active, N = inactive

Reference set, count: 5
[[record]]
compound = "Cc1cc(N2CCCCC2)nc2ccc(NC(=O)C3CCC(C)CC3)cc12 (stereo not given)"
answerlabel = "Y"

[[record]]
compound = "Cc1cc(N2CCOCC2)nc2ccc(NC(=O)CCC3CCCC3)cc12"
answerlabel = "Y"

[[record]]
compound = "COc1ccc(S(=O)(=O)N2CCN(c3nc(-c4cccs4)nc4ccccc34)CC2)cc1"
answerlabel = "Y"

[[record]]
compound = "CC(=O)Nc1ccc(NC(=O)COc2ccccc2C(=O)Nc2cccc(Cl)c2Cl)cc1"
answerlabel = "N"

[[record]]
compound = "CCOC(=O)c1ccc(S(=O)(=O)N2CCN(c3nc(-c4cccs4)nc4ccccc34)CC2)cc1"
answerlabel = "Y"


Q) Recorded call for CCCC1CCC(C(=O)Nc2ccc3nc(N4CCOCC4)cc(C)c3c2)CC1 (stereo not given) ?
A) Y

Q) What do we get for Cc1cc(Nc2cccc(Cl)c2)nc2ccc(NC(=O)C3CCC(C)CC3)cc12 (stereo not given) ?
A) N

Q) What do we get for O=S(=O)(c1ccc2c(c1)OCCO2)N1CCN(c2nc(-c3ccccc3)nc3ccccc23)CC1 ?
A) Y

Q) What do we get for O=S(=O)(c1ccccc1)N1CCN(c2nc(-c3cccs3)nc3ccccc23)CC1 ?
A) Y

Q) What do we get for Clc1ccccc1-c1nccc(NCc2ccccc2)n1 ?
A) Y

###

Biological target: Lysosomal acid glucosylceramidase (Homo sapiens)
Experiment: qHTS Assay for Inhibitors and Activators of N370S glucocerebrosidase as a Potential Chaperone Treatment of Gaucher Disease: Activity in Non-Mutant Spleen Homogenate Using a Red Fluorescent Substrate
Settings: red fluorogenic substrate GCase activity; series mostly up to 50.2 µM
Inconclusive results are not listed. Calls of active or inactive are those of the source. The call rests on the fitted dose curve; in most records, active means well fitted inhibition curve with a large enough effect; inconclusive means small, poorly fitted or top-dose-only effect, or effect the other way; inactive means flat fitted curve, though single readings scatter.
// allowed return values: Yes = active, No = inactive

Reference set, count: 5
[[record]]
compoundstructurestring = "O=C(Nc1cc(Br)ccc1O)c1cnn2c(C(F)F)cc(C3CC3)nc12"
answerlabel = "No"

[[record]]
compoundstructurestring = "CCCCNC(=O)c1ccc(NS(=O)(=O)c2ccccc2)cc1"
answerlabel = "No"

[[record]]
compoundstructurestring = "Cc1cc(C)n2ncc(C(=O)Nc3ccc(Cl)c(Cl)c3)c2n1"
answerlabel = "No"

[[record]]
compoundstructurestring = "Cc1ccc(S(=O)(=O)N2CCN(c3nc(-c4cccs4)nc4ccccc34)CC2)cc1"
answerlabel = "Yes"

[[record]]
compoundstructurestring = "O=S(=O)(c1ccccc1C(F)(F)F)N1CCN(c2nc(-c3ccccc3)nc3ccccc23)CC1"
answerlabel = "Yes"


Q) Recorded call for O=C(COc1ccccc1[N+](=O)[O-])Nc1ccc(Br)cc1 ?
A) No

Q) What do we get for CCN(CC)c1ccc(C(=O)Nc2ccc3nc(N4CCOCC4)cc(C)c3c2)cc1 ?
A) Yes

Q) What do we get for N#Cc1ccc(S(=O)(=O)N2CCN(c3nc(-c4cccs4)nc4ccccc34)CC2)cc1 ?
A) Yes

Q) What do we get for CC(C)(C)C(=O)OCCNc1nc(-c2ccccc2)nc2ccccc12 ?
A) Yes

Q) What do we get for O=S(=O)(c1ccc(Cl)cc1)N1CCN(c2nc(-c3cccc(Br)c3)nc3ccccc23)CC1 ?
A) No

###

Biological target: Lysosomal acid glucosylceramidase (Homo sapiens)
Experiment: qHTS Assay for Inhibitors and Activators of N370S glucocerebrosidase as a Potential Chaperone Treatment of Gaucher Disease: Activity in Non-Mutant Spleen Homogenate Using a Red Fluorescent Substrate
Details: red fluorogenic substrate GCase activity; series mostly up to 50.2 µM
From the text: NIH Chemical Genomics Center [NCGC] NIH Molecular Libraries Probe Production Centers Network [MLPCN] Assay Submitter (PI): Wei Zheng Glucocerebrosidase (GC) catalyzes the hydrolysis of beta-glucocerebroside to glucose and ceramide in lysosomes. Mutations in the glucocerebrosidase gene result in Gaucher disease, an autosomal recessive lysosomal storage disorder. […] (6) Detect the assay plate in a ViewLux plate reader (PerkinElmer) with Ex=365 nm and Em=440nm. […]
Records with an inconclusive call do not appear. Activity calls are given as the source filed them. Calls follow the shape of the dose curve; as a rule, active = well fitted inhibition curve with a large enough effect; inconclusive = small, poorly fitted or top-dose-only effect, or effect the other way; inactive = flat fitted curve, though single readings scatter.
measurementLabel: Potency

Examples with their reported Potency follow.
[[record]]
compound = "COc1ccccc1NC(=O)COc1ccccc1C(=O)Nc1ccccc1"
endpointvalue = "inactive"

[[record]]
compound = "Cc1ccc(C)c(N2CCN(C(=O)CCC(=O)Nc3ccc4nc(N5CCOCC5)cc(C)c4c3)CC2)c1"
endpointvalue = "14100 nM (active)"

[[record]]
compound = "O=C(Nc1ccccc1)c1ccc(NS(=O)(=O)c2ccccc2)cc1"
endpointvalue = "inactive"

[[record]]
compound = "O=[N+]([O-])c1ccc(S(=O)(=O)N2CCN(c3nc(-c4cccs4)nc4ccccc34)CC2)cc1"
endpointvalue = "1120 nM (active)"

[[record]]
compound = "O=C(/C=C/c1ccc(O)cc1)c1ccc(O)cc1O"
endpointvalue = "3980 nM (active)"


Q) Which value of Potency has been reported for O=S(=O)(c1ccc(F)cc1)N1CCN(c2nc(-c3ccc(F)cc3)nc3cc(Cl)ccc23)CC1 in the records?
A) inactive

Q) What do we get for c1ccc2c(NCC3CCCO3)nc(N3CCOCC3)nc2c1 (stereo not given) ?
A) inactive

Q) What do we get for CCC(C)NC(=O)COC(=O)c1ccccc1OCC(=O)Nc1ccc(Br)cc1 (stereo not given) ?
A) inactive

Q) What do we get for O=S(=O)(c1ccccc1Br)N1CCN(c2nc(-c3cccs3)nc3ccccc23)CC1 ?
A) 562 nM (active)

Q) What do we get for O=S(=O)(c1ccccc1F)N1CCN(c2nc(-c3cccs3)nc3ccccc23)CC1 ?
A) 501 nM (active)

###

Molecular target: Lysosomal acid glucosylceramidase (Homo sapiens)
Assay: qHTS Assay for Inhibitors and Activators of N370S glucocerebrosidase as a Potential Chaperone Treatment of Gaucher Disease: Activity in Non-Mutant Spleen Homogenate Using a Red Fluorescent Substrate
Details: red fluorogenic substrate GCase activity; series mostly up to 50.2 µM
Records with an inconclusive call do not appear. Activity calls are given as the source filed them. Calls come from the whole dose curve; as a rule, active = well fitted inhibition curve with a large enough effect; inconclusive = small, poorly fitted or top-dose-only effect, or effect the other way; inactive = flat fitted curve, though single readings scatter.
// allowed return values: active, inactive

Reference set, count: 3
[[record]]
compoundstructurestring = "Cc1cc(N2CCOCC2)nc2ccc(NC(=O)CCC(=O)NC3CCCCC3)cc12"
answerlabel = "inactive"

[[record]]
compoundstructurestring = "O=[N+]([O-])c1cccc(S(=O)(=O)N2CCN(c3nc(-c4cccs4)nc4ccccc34)CC2)c1"
answerlabel = "active"

[[record]]
compoundstructurestring = "O=S(=O)(c1ccc(Cl)cc1)N1CCN(c2nc(-c3ccc(Cl)cc3)nc3ccccc23)CC1"
answerlabel = "inactive"


Q) Recorded call for Cc1ccc(S(=O)(=O)N2CCN(c3nc(-c4ccc(F)cc4)nc4cc(Cl)ccc34)CC2)cc1 ?
A) inactive

Q) What do we get for O=S(=O)(c1ccc2c(c1)CCCC2)N1CCN(c2nc(-c3cccs3)nc3ccccc23)CC1 ?
A) active

###

Biological target: Lysosomal acid glucosylceramidase (Homo sapiens)
Assay: qHTS Assay for Inhibitors and Activators of N370S glucocerebrosidase as a Potential Chaperone Treatment of Gaucher Disease: Activity in Non-Mutant Spleen Homogenate Using a Red Fluorescent Substrate
Details: red fluorogenic substrate GCase activity; series mostly up to 50.2 µM
Records with an inconclusive call do not appear. Active and inactive are the calls of the source. Calls follow the shape of the dose curve; as a rule, active = well fitted inhibition curve with a large enough effect; inconclusive = small, poorly fitted or top-dose-only effect, or effect the other way; inactive = flat fitted curve, though single readings scatter.
measurementLabel: outcome

[[record]]
compoundstructurestring = "O=C(Nc1cnn(Cc2ccc(F)cc2)c1)c1cnn2c(C(F)F)cc(-c3ccccc3)nc12"
endpointvalue = "inactive"

[[record]]
compoundstructurestring = "CCc1cc(C(=O)N/N=C/c2c(C)[nH]c3ccccc23)cs1"
endpointvalue = "inactive"

[[record]]
compoundstructurestring = "COc1cc2c(cc1NC(=O)COC(=O)[C@@H](NC(=O)c1ccccc1)C(C)C)oc1ccccc12"
endpointvalue = "inactive"

